tested on: ATP; assay: switch fluorescence ratio, 500 uM ATP over buffer (Cy3 cluster intensity, sum of 5 cycles each) (fold (ratio)); higher = stronger signal-on switching upon ATP binding; sequences stand for … in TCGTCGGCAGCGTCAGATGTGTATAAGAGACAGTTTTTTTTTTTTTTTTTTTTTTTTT…TC; details: aptamer strand: ATP DNA aptamer (quencher-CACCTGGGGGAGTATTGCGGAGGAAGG + anchor), 100 nM annealed; ATP concentration: 500 uM;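 further: ATP exposure 15 min at 22 °C before imaging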
Listed sequences paired with reported switch fluorescence ratio

Worked set:
> print(dat)
   record.sequence              property.name  measured.value
1       GCATGTGGGT  switch fluorescence ratio           0.986
2       AGGCCGTAGG  switch fluorescence ratio           0.937
3       CCGGTGGGGA  switch fluorescence ratio            1.12
4       TACGATACTC  switch fluorescence ratio            1.62
5       ACAGGGGGCT  switch fluorescence ratio            1.04
6       TGTGATGCTG  switch fluorescence ratio            1.02

Here is the next item to consider.
Task: Recorded switch fluorescence ratio of GCATTTTTAC , please.
Output: 1.19

----------
system: ATP; experiment: switch fluorescence ratio, 500 uM ATP over buffer (Cy3 cluster intensity, sum of 5 cycles each) (fold (ratio)); higher = stronger signal-on switching upon ATP binding; sequences stand for … in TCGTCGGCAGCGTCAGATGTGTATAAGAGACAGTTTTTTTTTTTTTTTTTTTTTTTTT…TC; settings: aptamer strand: ATP DNA aptamer (quencher-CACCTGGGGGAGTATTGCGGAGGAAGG + anchor), 100 nM annealed; ATP concentration: 500 uM;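 further: ATP exposure 15 min at 22 °C before imaging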
Listed sequences paired with reported switch fluorescence ratio
Keep the answer to the number alone.

Worked set:
> print(dat)
   record.sequence              property.name  measured.value
1       CACGTAATTA  switch fluorescence ratio            1.25
2       ATACTTACCG  switch fluorescence ratio            1.22
3       CTCTACGCCG  switch fluorescence ratio           0.987

Task: Recorded switch fluorescence ratio of GATTAATGAG , please.
Output: 1.01

Task: Continue with GGCATATTGT
Output: 0.985

Task: Continue with AGACGGGGGG
Output: 1

Task: Continue with CTGAGTATAG
Output: 1.01

Task: Continue with TTTTATGAAG
Output: 1.04

Task: Continue with AAGGTTCTGG
Output: 0.988

Task: Continue with AGAGCACTTG
Output: 1.03

----------
Listed sequences paired with reported switch fluorescence ratio
tested on: ATP; assay: switch fluorescence ratio, 500 uM ATP over buffer (Cy3 cluster intensity, sum of 5 cycles each) (fold (ratio)); higher = stronger signal-on switching upon ATP binding; sequences stand for … in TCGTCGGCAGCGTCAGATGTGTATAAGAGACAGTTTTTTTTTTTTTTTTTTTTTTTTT…TC; details: aptamer strand: ATP DNA aptamer (quencher-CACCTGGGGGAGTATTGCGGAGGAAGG + anchor), 100 nM annealed; ATP concentration: 500 uM;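 further: ATP exposure 15 min at 22 °C before imaging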
Keep the answer to the number alone.

Worked set:
> print(dat)
   record.sequence  measured.value
1       ATTTTGTCGG           0.968
2       TTGGCCACCG            1.08
3       CTACCCTTTG            1.13
4       AACCGCCCTT            1.27
5       AAAGGGAAAA               1

Task: What value of switch fluorescence ratio on ATP does AGCTCGACGC have?
Output: 1.19

Task: Continue with ACAGGGGTAT
Output: 1.02

Task: Continue with TTAGATTGGT
Output: 0.99

Task: Continue with CGGGGGAGGT
Output: 0.989
